Each entry below carries its recorded DC50.
testSystem: ER (Homo sapiens)
Construct: host or cells: T47D and MCF7 human breast cancer cells
testProtocol: ER degradation activity, in-cell western blot analysis in T47D cells
Assay type: cell-based
studyConditions: 16 hours, Table A does not say which cell line (T47D or MCF7), read-out: Potency (DC50)

{"compound": "C[C@@H]1Cc2c([nH]c3ccccc23)[C@@H](c2c(F)cc(N3CCC(C(=O)N4CCC(CN5Cc6cc7c(cc6C5)C(=O)N(C5CCC(=O)NC5=O)C7=O)CC4)CC3)cc2F)N1CC(F)F (stereo partly drawn) [E 113]", "DC50": "10 to 100 nM"}
{"compound": "O=C1CCC(N2C(=O)c3cc4c(cc3C2=O)CN(CC(=O)N2CCC(C(=O)N3CC(Oc5ccc([C@@H]6c7ccc(O)cc7CC[C@@H]6c6ccccc6)cc5)C3)CC2)C4)C(=O)N1 (stereo partly drawn) [E 376]", "DC50": "> 100 nM"}
{"compound": "C[C@@H]1Cc2c([nH]c3ccccc23)[C@@H](c2ccc(N3CCC4(CCN(C(=O)CN5Cc6cc7c(cc6C5)C(=O)N(C5CCC(=O)NC5=O)C7=O)CC4)CC3)cn2)N1CC(F)F (stereo partly drawn) [E 280]", "DC50": "> 100 nM"}
{"compound": "O=C1CCC(N2C(=O)c3cc4c(cc3C2=O)CN(C2CCC(CN3CCN(c5ccc([C@@H]6c7ccc(O)cc7CC[C@@H]6c6ccccc6)cc5)CC3)CC2)C4)C(=O)N1 (stereo partly drawn) [E 290]", "DC50": "10 to 100 nM"}
{"compound": "C[C@@H]1Cc2cc(O)ccc2[C@@H](c2c(F)cc(N3CCC4(CCN(CC(=O)N5Cc6cc7c(cc6C5)C(=O)N(C5CCC(=O)NC5=O)C7)C4)C3)cc2F)N1CC(C)(F)F (stereo partly drawn) [E 32]", "DC50": "> 100 nM"}
{"compound": "O=C1CCC(N2C(=O)c3cc4c(cc3C2=O)CN(CC2CCN(CC3CN(c5ccc([C@@H]6c7ccc(O)cc7CC[C@@H]6c6ccccc6)cc5)C3)CC2)C4)C(=O)N1 (stereo partly drawn) [E244]", "DC50": "10 to 100 nM"}
{"compound": "C[C@@H]1Cc2c([nH]c3ccccc23)[C@@H](c2c(F)cc(N3CCN(CCN4Cc5cc6c(cc5C4)C(=O)N(C4CCC(=O)NC4=O)C6)CC3)cc2F)N1CC(F)F (stereo partly drawn) [E 54]", "DC50": "10 to 100 nM"}
{"compound": "C[C@@H]1Cc2c([nH]c3ccccc23)[C@@H](c2c(F)cc(N3CCC(N4CCC(CC(=O)N5Cc6cc7c(cc6C5)C(=O)N(C5CCC(=O)NC5=O)C7=O)CC4)CC3)cc2F)N1CC(F)F (stereo partly drawn) [E 93]", "DC50": "< 10 nM"}
{"compound": "O=C1CCC(N2C(=O)c3cc4c(cc3C2=O)CN(C2CN(CC3CCN(c5ccc([C@@H]6c7ccc(O)cc7CC[C@@H]6c6ccccc6)cc5)CC3)C2)C4)C(=O)N1 (stereo partly drawn) [E 272]", "DC50": "> 100 nM"}
{"compound": "O=C1CCC(N2C(=O)c3cc4c(cc3C2=O)CN(CC2CN(CC3CN(c5ccc([C@@H]6c7ccc(O)cc7CC[C@@H]6c6ccc(F)cc6)cc5)C3)C2)C4)C(=O)N1 (stereo partly drawn) [E 278]", "DC50": "> 100 nM"}
{"compound": "C[C@@H]1Cc2c([nH]c3ccccc23)[C@@H](c2c(F)cc(N3CC4(CCCN(C(=O)CN5Cc6cc7c(cc6C5)C(=O)N(C5CCC(=O)NC5=O)C7)C4)C3)cc2F)N1CC(F)F (stereo partly drawn) [E 69]", "DC50": "> 100 nM"}
{"compound": "C[C@@H]1Cc2cc(O)ccc2[C@@H](c2c(F)cc(N3CCC4(CN(C(=O)CN5Cc6cc7c(cc6C5)C(=O)N(C5CCC(=O)NC5=O)C7)C4)C3)cc2F)N1CC(F)F (stereo partly drawn) [E 37]", "DC50": "< 10 nM"}

====

testSystem: ER (Homo sapiens, UniProt P03372)
Construct: host or cells: T47D and MCF7 human breast cancer cells
testProtocol: ER degradation activity, in-cell western blot analysis in T47D cells
Type: cell-based
studyConditions: compounds 16 hours, Table A does not say whether T47D or MCF7, read-out: Potency (DC50)
Listed compounds paired with reported DC50

{"compound": "C[C@@H]1Cc2c(ccc3[nH]ncc23)[C@@H](c2ccc(N3CCC4(CCN(C(=O)CN5Cc6cc7c(cc6C5)C(=O)N(C5CCC(=O)NC5=O)C7=O)CC4)CC3)cn2)N1CC(F)(F)F (stereo partly drawn)", "DC50": "< 10 nM"}
{"compound": "C[C@@H]1Cc2cc(O)ccc2[C@@H](c2c(F)cc(C3=CCC4(CC3)CCN(C(=O)CN3Cc5cc6c(cc5C3)C(=O)N(C3CCC(=O)NC3=O)C6=O)CC4)cc2F)N1CC(F)F (stereo partly drawn)", "DC50": "> 100 nM"}
{"compound": "CN(c1ccc([C@@H]2c3ccc(O)cc3CC[C@@H]2c2ccccc2)cc1)C1CN(C[C@H]2CC[C@H](C(=O)N3Cc4cc5c(cc4C3)C(=O)N(C3CCC(=O)NC3=O)C5=O)CC2)C1 (stereo partly drawn)", "DC50": "> 100 nM"}
